# assayedTarget: soluble HLA-A*0201 (sHLA-A*0201) (human)
pIC50: −log10 of the molar value.

binder	pIC50
KLGEFYNQMM (modifications not checked)	5.55
DLVHFASPL (modifications not checked)	3.44
